Task for the reader: assign each of the following variants its reported yeast fitness.
B1: tRNA (parent)
chain: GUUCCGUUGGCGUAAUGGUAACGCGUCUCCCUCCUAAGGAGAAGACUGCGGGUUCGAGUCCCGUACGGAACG

- Variants of: B1
- TEST: yeast fitness relative to wild type (ratio to wild type); higher = fitter; tRNA-Arg(CCU), competitive growth, 37 C, YPD
This sample holds only a part of the variants without activity.
One number for each entry.

Examples from the recorded data:
U16A A42C A69U: 0.505
C33U G48A C60U U64G A65U: 0.606
G18C C61A: 0.627
U2C G12A G18C C33U A69C: 0.565
G6C A42U: 0.739

Go through the items and report each one's yeast fitness.
1. U7G G25C G56A
2. G6C U13G
3. A14C A21U C46A A69C

[0.697, 0.56, 0.59]

Go through the items and report each one's yeast fitness.
1. G23C A42U
2. C5G C24U U26C C31U

1: 0.65; 2: 0.749
